SYSTEM UNDER TEST: T1, mouse PRLR on HEK293 cells (mouse, UniProt Q08501 20-608)
T1 construct: whole, on cells; also called mPRLR; HEK293/mPRLR
T1 sequence (looked up): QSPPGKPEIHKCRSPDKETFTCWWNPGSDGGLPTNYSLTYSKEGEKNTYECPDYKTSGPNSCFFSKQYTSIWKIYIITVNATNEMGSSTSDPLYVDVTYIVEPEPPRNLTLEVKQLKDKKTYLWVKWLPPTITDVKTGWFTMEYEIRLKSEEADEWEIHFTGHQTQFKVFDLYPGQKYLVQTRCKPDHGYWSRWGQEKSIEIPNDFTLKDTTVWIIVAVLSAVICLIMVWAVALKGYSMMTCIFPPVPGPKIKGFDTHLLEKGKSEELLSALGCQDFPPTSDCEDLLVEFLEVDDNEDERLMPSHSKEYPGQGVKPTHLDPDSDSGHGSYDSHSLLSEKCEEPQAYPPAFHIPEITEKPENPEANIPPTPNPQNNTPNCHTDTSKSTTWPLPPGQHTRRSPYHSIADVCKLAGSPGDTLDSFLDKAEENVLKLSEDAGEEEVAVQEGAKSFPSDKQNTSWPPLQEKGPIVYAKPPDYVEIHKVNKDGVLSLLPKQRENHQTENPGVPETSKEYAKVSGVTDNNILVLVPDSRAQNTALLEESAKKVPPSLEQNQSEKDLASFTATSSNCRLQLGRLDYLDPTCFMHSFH
EXPERIMENTAL DETAILS: FACS, HEK293/mPRLR cells; also: test concentration or dose not given here
EXPERIMENTAL READOUT: FACS Cell Binding (Fold Above Background) (fold above background)
# output: bare number, implied unit fold above background

H1H6793P (antibody, human IgG1, V domains shown, human IgG1 Fc (H1H)) VH: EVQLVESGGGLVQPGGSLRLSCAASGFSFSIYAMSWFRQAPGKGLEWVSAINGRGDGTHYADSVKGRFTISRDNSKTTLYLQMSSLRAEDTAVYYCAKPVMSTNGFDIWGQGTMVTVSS VL: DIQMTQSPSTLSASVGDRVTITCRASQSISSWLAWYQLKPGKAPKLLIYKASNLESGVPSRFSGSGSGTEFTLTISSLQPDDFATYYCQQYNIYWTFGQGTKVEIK	2
H1H6960N (antibody, human IgG1, V domains shown, also called H2M6960N) VH: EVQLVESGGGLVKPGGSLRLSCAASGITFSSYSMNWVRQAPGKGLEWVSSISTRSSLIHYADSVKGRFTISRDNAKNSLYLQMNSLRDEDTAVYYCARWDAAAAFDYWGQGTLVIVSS VL: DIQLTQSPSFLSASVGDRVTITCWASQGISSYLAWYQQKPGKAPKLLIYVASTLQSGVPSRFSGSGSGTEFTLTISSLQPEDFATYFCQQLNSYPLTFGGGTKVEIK	1

Now turn to the next binder.
INPUT: Entry H1H6804P (antibody, human IgG1, V domains shown, human IgG1 Fc (H1H)) VH: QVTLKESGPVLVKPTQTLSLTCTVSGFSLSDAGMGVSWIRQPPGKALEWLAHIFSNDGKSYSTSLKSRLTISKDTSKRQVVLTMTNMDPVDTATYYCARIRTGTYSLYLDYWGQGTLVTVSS VL: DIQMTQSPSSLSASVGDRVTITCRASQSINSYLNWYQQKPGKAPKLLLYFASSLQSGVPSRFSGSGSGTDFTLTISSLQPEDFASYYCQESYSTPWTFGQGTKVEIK : reported FACS Cell Binding (Fold Above Background) = ?
OUTPUT: 1
